Target: Human recombinant cathepsin K (Homo sapiens, UniProt P43235)
Construct: purchased B. Turk, Josef, Stefan Institute, Ljubljana, Slovenia
Sequence (P43235 115-329): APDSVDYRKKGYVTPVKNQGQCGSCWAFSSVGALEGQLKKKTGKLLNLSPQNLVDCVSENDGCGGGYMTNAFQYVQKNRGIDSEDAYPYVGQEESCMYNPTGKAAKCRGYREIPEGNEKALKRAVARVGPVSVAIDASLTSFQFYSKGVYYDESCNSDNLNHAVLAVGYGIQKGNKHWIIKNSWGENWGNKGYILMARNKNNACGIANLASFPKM
Experiment: In vitro cathepsin Ki inhibition measurements
Type: biochemical
Conditions: Table 1, read-out: In vitro Ki (nM) vs Cath K
quantity: Ki (nM)

Solved cases (3 shown):
compound=CO[C@H]1CN(C(=O)[C@@H](NC(=O)c2ccc(-c3csc(N4CCN(C)CC4)n3)cc2)C2CCCC2)[C@@H]2C(=O)CO[C@H]12 assayed_system="Human recombinant cathepsin K (Homo sapiens, UniProt P43235)" numeric_value=1.4
compound=CN1CCN(c2nc(-c3ccc(C(=O)N[C@@H](CC(C)(C)C)C(=O)N4CC[C@H]5OCC(=O)[C@H]54)cc3)cs2)CC1 assayed_system="Human recombinant cathepsin K (Homo sapiens, UniProt P43235)" numeric_value=1.7
compound=CC(C)C[C@H](NC(=O)c1ccc(-c2csc(N3CCN(C)CC3)n2)cc1)C(=O)N1CC[C@H]2OCC(=O)[C@H]21 assayed_system="Human recombinant cathepsin K (Homo sapiens, UniProt P43235)" numeric_value=1.7

a. CO[C@@H]1CN(C(=O)[C@@H](NC(=O)c2ccc(-c3csc(N4CCN(C)CC4)n3)cc2)C2CCCC2)[C@@H]2C(=O)CO[C@@H]21
b. CN1CCN(c2nc(-c3ccc(C(=O)N[C@H](C(=O)N4CC[C@H]5OCC(=O)[C@H]54)C4CCCC4)cc3)cs2)CC1
c. CC(C)C[C@H](NC(=O)c1ccc(C(C)(C)C)cc1)C(=O)N1CC[C@H]2OCC(=O)[C@H]21 [Prior art compound 23, reference compound]
Exam item: List by increasing Ki. Returns: the labels arranged in the requested order.
Marked response: b, a, c

These data points were gathered from patent US7799791B2.
